- measurement_notes: Solubility in water
- Type: physicochemical
- measurement_context: medium not stated; read-out: solubility
Where a SMILES comes first, the peptide text is derived from it. The star is where a group is joined. pNA = O=[N+]([O-])c1ccc(N*)cc1; Bz = O=C(c1ccccc1)*
reported_property: solubility (µg/mL)
Numbers only, in µg/mL.

Asked: Quick one: solubility of CC(C)[C@H](NC(=O)[C@H](Cc1ccccc1)NC(=O)c1ccccc1)C(=O)N[C@@H](CCCNC(=N)N)C(=O)Nc1ccc([N+](=O)[O-])cc1 [Example S-2160, Bz-Phe-Val-Arg-pNA, reference compound] (Bz-Phe-Val-Arg-pNA) ?
Given back: 1000

---

- measurement_notes: Solubility in water
- Format: physicochemical
- measurement_context: water; Table I, in H2O; read-out: Solubility in H2O
Where a SMILES comes first, the peptide text is derived from it. The star is where a group is joined. pNA = O=[N+]([O-])c1ccc(N*)cc1; Bz = O=C(c1ccccc1)*
reported_property: solubility (µg/mL)
Answers are plain numbers, in µg/mL.

The cases that follow already have their solubility on record.
>>> assay_result("N=C(N)NCCC[C@H](NC(=O)[C@@H]1CCCN1C(=O)[C@H](N)Cc1ccccc1)C(=O)Nc1ccc([N+](=O)[O-])cc1 [VIII, H--D--Phe--Pro--Arg--pNA.2HCl]")
3000
>>> assay_result("N=C(N)NCCC[C@H](NC(=O)[C@@H]1CCCCN1C(=O)[C@H](N)Cc1ccccc1)C(=O)Nc1ccc([N+](=O)[O-])cc1 [Example X, H--D--Phe--Pip--Arg--pNA.2HCl]")
3000
>>> assay_result("N=C(N)NCCC[C@H](NC(=O)[C@@H]1CCCN1C(=O)[C@@H](N)Cc1ccccc1)C(=O)Nc1ccc([N+](=O)[O-])cc1 [IX, H--Phe--Pro--Arg--pNA.2HCl]")
1000

Quick one: give me solubility for each item below, same order please.
1. N=C(N)NCCC[C@H](NC(=O)[C@@H]1CCCCN1C(=O)[C@@H](N)Cc1ccccc1)C(=O)Nc1ccc([N+](=O)[O-])cc1 [XI, H--Phe--Pip--Arg--pNA.2HCl]
2. CC(C)[C@H](NC(=O)[C@@H](N)Cc1ccccc1)C(=O)N[C@@H](CCCNC(=N)N)C(=O)Nc1ccc([N+](=O)[O-])cc1 [B, H-Phe-Val-Arg-pNA, reference compound] (H-Phe-Val-Arg-pNA)
3. CC(C)[C@H](NC(=O)[C@H](Cc1ccccc1)NC(=O)c1ccccc1)C(=O)N[C@@H](CCCNC(=N)N)C(=O)Nc1ccc([N+](=O)[O-])cc1 [Example S-2160, Bz-Phe-Val-Arg-pNA, reference compound] (Bz-Phe-Val-Arg-pNA)

Given back:
1. 1000
2. 1000
3. 100
